# TARGET_OR_SYSTEM: Aurora kinase A (Homo sapiens)
# Sequence (O14965 whole entry): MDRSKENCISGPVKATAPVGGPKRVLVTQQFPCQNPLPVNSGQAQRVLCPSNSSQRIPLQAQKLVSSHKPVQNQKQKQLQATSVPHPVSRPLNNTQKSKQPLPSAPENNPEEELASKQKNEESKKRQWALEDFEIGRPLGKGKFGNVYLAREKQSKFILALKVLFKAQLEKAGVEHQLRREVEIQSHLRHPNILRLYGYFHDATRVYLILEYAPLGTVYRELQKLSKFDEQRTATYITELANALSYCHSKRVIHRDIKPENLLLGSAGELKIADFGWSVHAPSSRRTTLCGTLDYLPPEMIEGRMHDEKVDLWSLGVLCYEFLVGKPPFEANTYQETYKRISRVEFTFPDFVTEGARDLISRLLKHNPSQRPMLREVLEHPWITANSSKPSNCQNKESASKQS
PROPERTY: IC50 (nM)

As a guide, the following entries are already answered.
1) O=C(Nc1ccc(Cl)cc1)Nc1ncc(CCNc2ncnc3ccsc23)s1
39
2) O=C(Nc1ncc(CCNc2ncnc3ccsc23)s1)Nc1cccc2cc[nH]c12
30
3) O=C(Nc1ncc(CCNc2ncnc3ccsc23)s1)c1cccc(C(F)(F)F)c1
2500
4) O=C(Nc1ccccc1)Nc1ncc(CCNc2ncnc3ccsc23)s1
52

[1] O=C(Nc1cccc(F)c1)Nc1ncc(CCNc2ncnc3ccsc23)s1
[2] O=C(Nc1cccc(C(F)(F)F)c1)Nc1cn(CCNc2ncnc3ccsc23)nn1
[3] O=C(Nc1cccc(C(F)(F)F)c1)Nc1cn(CCNc2ncnc3ccsc23)cn1
[4] COc1cccc(NC(=O)Nc2ncc(CCNc3ncnc4ccsc34)s2)c1
Put the entries in order of IC50, starting with the largest number. Please list the labels according to the requested order. 3, 2, 4, 1
(3: 1200 nM, 2: 250 nM, 4: 50 nM, 1: 23 nM)

Hey, just so you know, these numbers are from ChEMBL document CHEMBL1156726.
